Attribution: ChEMBL document CHEMBL1140351

# target_entity: NS3 (Hepatitis C virus, UniProt A3EZJ3)
# Sequence (A3EZJ3 whole entry, the tested form may be a part): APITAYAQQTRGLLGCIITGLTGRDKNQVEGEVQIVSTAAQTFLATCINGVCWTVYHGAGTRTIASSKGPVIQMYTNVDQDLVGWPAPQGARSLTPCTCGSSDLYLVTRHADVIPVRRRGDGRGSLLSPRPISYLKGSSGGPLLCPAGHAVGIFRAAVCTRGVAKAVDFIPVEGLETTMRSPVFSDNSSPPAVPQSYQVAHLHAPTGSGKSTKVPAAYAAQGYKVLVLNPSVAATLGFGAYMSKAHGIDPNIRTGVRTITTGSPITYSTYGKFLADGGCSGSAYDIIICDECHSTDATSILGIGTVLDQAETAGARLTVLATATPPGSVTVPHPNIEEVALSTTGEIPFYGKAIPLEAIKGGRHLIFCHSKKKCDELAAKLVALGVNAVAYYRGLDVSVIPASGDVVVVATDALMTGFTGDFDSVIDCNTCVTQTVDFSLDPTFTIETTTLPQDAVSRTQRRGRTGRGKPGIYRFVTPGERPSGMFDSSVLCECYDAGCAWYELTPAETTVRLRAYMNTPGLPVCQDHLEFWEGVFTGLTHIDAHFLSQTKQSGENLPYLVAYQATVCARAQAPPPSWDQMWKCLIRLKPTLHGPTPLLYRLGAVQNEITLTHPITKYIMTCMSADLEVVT
# procedure_text: Ability to inhibit the hydrolysis of chromogenic 4-phenylazophenyl ester from the peptide fragment Ac- DTEDVVP(Nva)-O-4-PAP in a HCV protease continuous assay
# Design: species or system Hepacivirus hominis
Reported Ki by item:
Entry rule: numbers only, all in nM.

Reference set, count: 5
>  <entry_smiles>
CCC[C@H](NC(=O)[C@@H]1Cc2cccc(c2)Oc2ccc(cc2)CCCC(=O)N[C@@H](C2CCCCC2)C(=O)N1)C(=O)C(=O)NCC(=O)N[C@H](C(=O)O)c1ccccc1

>  <Ki, nM>
300

$$$$
>  <entry_smiles>
CCC[C@H](NC(=O)[C@@H]1Cc2cccc(c2)Oc2ccc(cc2)CCC(=O)N[C@@H](C2CCCCC2)C(=O)N1)C(=O)C(=O)NCC(=O)N[C@H](C(=O)O)c1ccccc1

>  <Ki, nM>
110

$$$$
>  <entry_smiles>
CCC[C@H](NC(=O)[C@@H]1Cc2cccc(c2)Oc2ccc(cc2)C[C@H](NC(=O)OC(C)(C)C)C(=O)N[C@@H](C2CCCCC2)C(=O)N1)C(=O)C(=O)NCC(=O)N[C@H](C(=O)O)c1ccccc1

>  <Ki, nM>
7800

$$$$
>  <entry_smiles>
CCC[C@H](NC(=O)[C@@H]1Cc2cccc(c2)Oc2ccc(cc2)C[C@H](NC(=O)OC(C)(C)C)C(=O)N[C@@H](C2CCCCC2)C(=O)N1)C(=O)C(=O)NCC(=O)O

>  <Ki, nM>
12000

$$$$
>  <entry_smiles>
CCC[C@H](NC(=O)[C@@H]1Cc2cccc(c2)Oc2ccc(cc2)CCCCC(=O)N[C@@H](C2CCCCC2)C(=O)N1)C(=O)C(=O)NCC(=O)N[C@H](C(=O)O)c1ccccc1

>  <Ki, nM>
160

$$$$

Now, please, on to the next molecule.
# molecule CCC[C@H](NC(=O)[C@@H]1Cc2cccc(c2)Oc2ccc(cc2)C[C@H](NC(C)=O)C(=O)N[C@@H](C2CCCCC2)C(=O)N1)C(=O)C(=O)NCC(=O)N[C@H](C(=O)O)c1ccccc1 ; its Ki = 800
